Reported koff values follow for various binders
- targetSystem: T1, human CD73 (huCD73) protein, antigen of the Biacore assay (human, UniProt P21589 27-547, limits assumed)
- T1 construct: also called human CD73 antigen
- T1 sequence (looked up): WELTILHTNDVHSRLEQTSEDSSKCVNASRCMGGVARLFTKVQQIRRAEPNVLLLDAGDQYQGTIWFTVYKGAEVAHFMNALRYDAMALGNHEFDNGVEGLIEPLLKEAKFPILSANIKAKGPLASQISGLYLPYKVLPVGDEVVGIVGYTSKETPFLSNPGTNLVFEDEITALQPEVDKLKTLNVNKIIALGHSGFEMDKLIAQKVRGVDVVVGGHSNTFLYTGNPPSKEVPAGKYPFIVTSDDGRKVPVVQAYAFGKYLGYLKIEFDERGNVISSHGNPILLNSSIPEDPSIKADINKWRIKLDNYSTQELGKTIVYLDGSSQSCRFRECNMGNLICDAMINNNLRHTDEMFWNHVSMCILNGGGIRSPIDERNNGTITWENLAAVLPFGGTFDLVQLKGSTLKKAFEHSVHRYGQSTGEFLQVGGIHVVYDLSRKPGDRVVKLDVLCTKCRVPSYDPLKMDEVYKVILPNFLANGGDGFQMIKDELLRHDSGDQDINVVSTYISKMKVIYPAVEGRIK
- measurementDescription: SPR Biacore T200; antibody captured on Protein A chip, CD73 in flow; 1:1 Langmuir
- Excerpt: In this experiment, Biacore instrument was used to determine the affinity of the humanized anti-CD73 antibodies to be tested with human CD73 (huCD73) and monkey CD73 (cynoCD73). A certain amount of test antibody was affinity-captured with Protein A biosensing chip (Cat. #29127556, GE), and then a certain concentration of human or monkey CD73 antigen was allowed to flow through the surface of the chip. […]

| binder | unitAbbrev | koff |
| --- | --- | --- |
| Hab127.14 (antibody, V domains shown, VL1 + VH4; recombined with human heavy and light constant regions) VH: EVQLVQSGAEVKKPGASVKVSCKASGYTFTAYFMNWVMQAPGQSLEWIGRIYHNNGDTFYSQKFKGRATLTVDKSTSTVYMELRSLRSEDTAVYYCATSYVGDWGQGTTVTVSS VL: DIQMTQSPSSLSASVGDRVTITCRASQDIGDSLNWYQQKPGKAPKRLIYATSSLDSGVPSRFSGSGSGTEFTLTISSLQPEDFATYYCLQYASFPWTFGGGTKVEIK | s⁻¹ | 0.000118 |
| Hab127.31b (antibody, V domains shown, VL3 + VH1b, HCDR2 hot-spot variant; full-length antibody) VH: EVQLVQSGAEVKKPGASVKVSCKASGYTFTAYFMNWVRQAPGQGLEWMGRIYHNLGDTFYSQKFKGRVTMTVDKSTSTVYMELSSLRSEDTAVYYCATSYVGDWGQGTTVTVSS VL: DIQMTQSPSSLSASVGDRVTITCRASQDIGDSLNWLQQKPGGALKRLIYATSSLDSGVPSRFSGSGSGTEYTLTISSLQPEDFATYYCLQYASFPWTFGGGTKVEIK | s⁻¹ | 4.48e-05 |
